# credit: patent US11225477B2

Test system: virus H1N1 A/Weiss/43
METHOD_SUMMARY: microbe, parasite or virus in culture
Format: cell-based
EXPERIMENTAL_PARAMETERS: Influenza A virus, 120 h; MDCK cells, H1N1 A/Weiss/43, Scheme 1: 8 concentrations 100 μM to 0.05 μM, 5 days, CCK-8
READOUT: EC50

{"columns": ["COMPOUND", "VAL"],
 "data": [
  ["O=C(O)C1C2CCC(CC2)C1Nc1cc(-c2ccccc2)nc(-c2c[nH]c3ncc(F)cc23)n1 (racemic) [Example 4]", "< 50 nM"],
  ["O=C(O)C1C2CCC(CC2)C1Nc1nc(-c2c[nH]c3ncc(F)cc23)nc2c1CCCC2 (racemic) [Example 2]", "< 50 nM"],
  ["COc1ccc(-c2cc(NC3C4CCC(CC4)C3C(=O)O)nc(-c3c[nH]c4ncc(F)cc34)n2)cc1 (racemic) [Example 3]", "< 50 nM"],
  ["O=C(O)C1C2CCC(CC2)C1Nc1nc(-c2c[nH]c3ncc(F)cc23)nc2ccccc12 (racemic) [Example 1]", "< 50 nM"],
  ["O=C(O)C1C2CCC(CC2)C1Nc1cc(-c2ccc(F)cc2)nc(-c2c[nH]c3ncc(F)cc23)n1 (racemic) [Example 6]", "< 50 nM"]
]}

* * *

METHOD_SUMMARY: in vivo
EXPERIMENTAL_PARAMETERS: SD, rat, po, 5 mg/kg
Binary call on half-life with cut-off 200 min: strictly below means met, and equality or higher means not met.

{"columns": ["COMPOUND", "CLASS_ASSIGNMENT"],
 "data": [
  ["O=C(O)C1C2CCC(CC2)C1Nc1cc(-c2ccco2)nc(-c2c[nH]c3ncc(F)cc23)n1 (racemic)", "met"],
  ["O=C(O)C1C2CCC(CC2)C1Nc1cc(-c2ccccc2)nc(-c2c[nH]c3ncc(F)cc23)n1 (racemic)", "met"],
  ["O=C(O)C1C2CCC(CC2)C1Nc1cc(-c2cc3ccccc3s2)nc(-c2c[nH]c3ncc(F)cc23)n1 (racemic)", "met"],
  ["CC(C)(C)[C@@H](CC(=O)O)Nc1nc(-c2c[nH]c3ncc(F)cc23)nc(-c2ccco2)c1F", "not met"],
  ["Cn1ccc2c(NC3C4CCC(CC4)C3C(=O)O)nc(-c3c[nH]c4ncc(F)cc34)nc21 (racemic)", "met"],
  ["O=C(O)C1C2CCC(CC2)C1Nc1nc(-c2c[nH]c3ncc(F)cc23)nc2c1CCCC2 (racemic)", "met"],
  ["O=C(O)[C@H]1C2CCC(CC2)[C@@H]1Nc1cc(-c2ccco2)nc(-c2c[nH]c3nc(F)ccc23)n1", "not met"],
  ["O=C(O)C1C2CCC(CC2)C1Nc1nc(-c2c[nH]c3ncc(F)cc23)nc2ccccc12 (racemic)", "met"],
  ["O=C(O)C1C2CCC(CC2)C1Nc1nc(-c2c[nH]c3ncc(F)cc23)nc(C#Cc2ccccc2)c1F (racemic)", "not met"],
  ["Cc1nc2[nH]cc(-c3nc(NC4C5CCC(CC5)C4C(=O)O)cc(-c4ccccc4)n3)c2cc1F (racemic)", "met"],
  ["O=C(O)C1C2CCC(CC2)C1Nc1cc(-c2cccc3c2oc2ccccc23)nc(-c2c[nH]c3ncc(F)cc23)n1 (racemic)", "not met"]
]}

* * *

A collection of compounds and their measured AUC(0-inf)
METHOD_SUMMARY: in vivo
EXPERIMENTAL_PARAMETERS: SD, rat, iv, 1 mg/kg

{"columns": ["COMPOUND", "OUTPUT_UNIT", "AUC(0-inf)"],
 "data": [
  ["O=C(O)C1C2CCC(CC2)C1Nc1nc(-c2c[nH]c3ncc(F)cc23)nc2c1CCCC2 (racemic) [Example 2]", "ng·h/mL", 3470],
  ["Cn1ccc2c(NC3C4CCC(CC4)C3C(=O)O)nc(-c3c[nH]c4ncc(F)cc34)nc21 (racemic) [Example 65]", "ng·h/mL", 5360],
  ["O=C(O)C1C2CCC(CC2)C1Nc1cc(-c2cc3ccccc3s2)nc(-c2c[nH]c3ncc(F)cc23)n1 (racemic) [Example 17]", "ng·h/mL", 2520],
  ["O=C(O)C1C2CCC(CC2)C1Nc1cc(-c2ccco2)nc(-c2c[nH]c3ncc(F)cc23)n1 (racemic) [Example 9]", "ng·h/mL", 7350],
  ["O=C(O)C1C2CCC(CC2)C1Nc1nc(-c2c[nH]c3ncc(F)cc23)nc(C#Cc2ccccc2)c1F (racemic) [Example 63]", "ng·h/mL", 4750],
  ["O=C(O)C1C2CCC(CC2)C1Nc1nc(-c2c[nH]c3ncc(F)cc23)nc2ccccc12 (racemic) [Example 1]", "ng·h/mL", 5020],
  ["Cc1nc2[nH]cc(-c3nc(NC4C5CCC(CC5)C4C(=O)O)cc(-c4ccccc4)n3)c2cc1F (racemic) [Example 80]", "ng·h/mL", 3380]
]}

* * *

A collection of compounds and their measured Cmax
METHOD_SUMMARY: in vivo
EXPERIMENTAL_PARAMETERS: SD, rat, po, 5 mg/kg

{"columns": ["COMPOUND", "OUTPUT_UNIT", "Cmax"],
 "data": [
  ["O=C(O)C1C2CCC(CC2)C1Nc1cc(-c2cccc3c2oc2ccccc23)nc(-c2c[nH]c3ncc(F)cc23)n1 (racemic) [Example 18]", "µg/mL", 1.69],
  ["O=C(O)C1C2CCC(CC2)C1Nc1cc(-c2ccco2)nc(-c2c[nH]c3ncc(F)cc23)n1 (racemic) [Example 9]", "µg/mL", 5.27],
  ["O=C(O)C1C2CCC(CC2)C1Nc1nc(-c2c[nH]c3ncc(F)cc23)nc2ccccc12 (racemic) [Example 1]", "µg/mL", 3.13],
  ["O=C(O)C1C2CCC(CC2)C1Nc1nc(-c2c[nH]c3ncc(F)cc23)nc(C#Cc2ccccc2)c1F (racemic) [Example 63]", "µg/mL", 3.28],
  ["Cc1nc2[nH]cc(-c3nc(NC4C5CCC(CC5)C4C(=O)O)cc(-c4ccccc4)n3)c2cc1F (racemic) [Example 80]", "µg/mL", 3.13],
  ["Cn1ccc2c(NC3C4CCC(CC4)C3C(=O)O)nc(-c3c[nH]c4ncc(F)cc34)nc21 (racemic) [Example 65]", "µg/mL", 7.94],
  ["O=C(O)[C@H]1C2CCC(CC2)[C@@H]1Nc1cc(-c2ccco2)nc(-c2c[nH]c3nc(F)ccc23)n1 [Example 73]", "µg/mL", 9.3],
  ["O=C(O)C1C2CCC(CC2)C1Nc1cc(C2CC2)nc(-c2c[nH]c3ncc(F)cc23)n1 (racemic) [Example 68]", "µg/mL", 2.96],
  ["O=C(O)C1C2CCC(CC2)C1Nc1cc(-c2ccccc2)nc(-c2c[nH]c3ncc(F)cc23)n1 (racemic) [Example 4]", "µg/mL", 3.48],
  ["O=C(O)C1C2CCC(CC2)C1Nc1nc(-c2c[nH]c3ncc(F)cc23)nc2c1CCCC2 (racemic) [Example 2]", "µg/mL", 4.02],
  ["CC(C)(C)[C@@H](CC(=O)O)Nc1nc(-c2c[nH]c3ncc(F)cc23)nc(-c2ccco2)c1F [Example 61]", "µg/mL", 2.71],
  ["O=C(O)C1C2CCC(CC2)C1Nc1cc(-c2cc3ccccc3s2)nc(-c2c[nH]c3ncc(F)cc23)n1 (racemic) [Example 17]", "µg/mL", 2.66]
]}

* * *

A collection of compounds and their measured AUC(0-inf)
METHOD_SUMMARY: in vivo
EXPERIMENTAL_PARAMETERS: SD, rat, iv, 1 mg/kg

{"columns": ["COMPOUND", "AUC(0-inf), ng·h/mL"],
 "data": [
  ["O=C(O)C1C2CCC(CC2)C1Nc1cc(-c2cccc3c2oc2ccccc23)nc(-c2c[nH]c3ncc(F)cc23)n1 (racemic)", 3190],
  ["O=C(O)C1C2CCC(CC2)C1Nc1cc(C2CC2)nc(-c2c[nH]c3ncc(F)cc23)n1 (racemic)", 2880],
  ["O=C(O)[C@H]1C2CCC(CC2)[C@@H]1Nc1cc(-c2ccco2)nc(-c2c[nH]c3nc(F)ccc23)n1", 24800],
  ["CC(C)(C)[C@@H](CC(=O)O)Nc1nc(-c2c[nH]c3ncc(F)cc23)nc(-c2ccco2)c1F", 4050],
  ["O=C(O)C1C2CCC(CC2)C1Nc1cc(-c2ccccc2)nc(-c2c[nH]c3ncc(F)cc23)n1 (racemic)", 4610]
]}

* * *

EXPERIMENTAL_PARAMETERS: SD, rat, in vivo, po, 5 mg/kg

{"columns": ["COMPOUND", "OUTPUT_UNIT", "F"],
 "data": [
  ["O=C(O)C1C2CCC(CC2)C1Nc1cc(-c2ccccc2)nc(-c2c[nH]c3ncc(F)cc23)n1 (racemic) [Example 4]", "%", 56.4],
  ["O=C(O)C1C2CCC(CC2)C1Nc1cc(C2CC2)nc(-c2c[nH]c3ncc(F)cc23)n1 (racemic) [Example 68]", "%", 60.1],
  ["O=C(O)C1C2CCC(CC2)C1Nc1nc(-c2c[nH]c3ncc(F)cc23)ncc1F (racemic) [Control VX-787 (racemization), reference compound]", "%", 58.4],
  ["O=C(O)C1C2CCC(CC2)C1Nc1nc(-c2c[nH]c3ncc(F)cc23)nc2ccccc12 (racemic) [Example 1]", "%", 42.1]
]}
